assay: in vitro; details: human
*1 amine or outer side, *2 acyl side, *3 side chain or, on linkers, in order; H or OH if unused. Where a SMILES comes first, the peptide text is derived from it. Bridges are numbered along the chain shown (N, C = ends). [ ]: non-standard residue; d: D form. The star is where a group is joined. Benzoyl(3-Ph) = O=C(c1cccc(-c2ccccc2)c1)*; Hexanoyl(6-Ph) = O=C(CCCCCc1ccccc1)*; NH(2-ClPh) = Clc1ccccc1N*; dDab = NCC[C@@H](N)C(=O)O; Octanoyl = CCCCCCCC(=O)*; Dab = NCC[C@H](N)C(=O)O; CO = O=C([*:1])[*:2]
Parameter: CC50 at 24 h. Scope: all listed entries.

Request the reported CC50 at 24 h associated with CC(C)C[C@@H]1NC(=O)[C@@H](Cc2ccccc2)NC(=O)[C@H](CCN)NC(=O)[C@@H](NC(=O)[C@@H](CCN)NC(=O)[C@@H](NC(=O)Nc2ccccc2Cl)[C@@H](C)O)CCNC(=O)[C@H]([C@@H](C)O)NC(=O)[C@H](CCN)NC(=O)[C@H](CCN)NC1=O [Compound 22] ({NH(2-ClPh)-CO}-T[dDab][Dab][Dab][dF]L[Dab][Dab]T; lactam 3-C) > 300 µM

I would be grateful if you could share the reported CC50 at 24 h for CC(C)C[C@@H]1NC(=O)[C@@H](Cc2ccccc2)NC(=O)[C@H](CCN)NC(=O)[C@@H](NC(=O)[C@H](CCN)NC(=O)[C@@H](NC(=O)c2cccc(-c3ccccc3)c2)[C@@H](C)O)CCNC(=O)[C@H]([C@@H](C)O)NC(=O)[C@H](CCN)NC(=O)[C@H](CCN)NC1=O [Compound 14] ({Benzoyl(3-Ph)}-T[Dab][Dab][Dab][dF]L[Dab][Dab]T; lactam 3-C) . 182 µM

Fill in the blank: the reported CC50 at 24 h of CCCCCCCC(=O)N[C@H](C(=O)N[C@H](CCCCN)C(=O)N[C@H]1CCNC(=O)[C@H]([C@@H](C)O)NC(=O)[C@H](CCN)NC(=O)[C@H](CCN)NC(=O)[C@H](CC(C)C)NC(=O)[C@@H](Cc2ccccc2)NC(=O)[C@H](CCN)NC1=O)[C@@H](C)O [Compound 43] (Octanoyl-T[dK][Dab][Dab][dF]L[Dab][Dab]T; lactam 3-C) is ____. > 300 µM

Bench note: what CC50 at 24 h did CCCCCCCC(=O)N[C@H](C(=O)N[C@@H](CC(N)=O)C(=O)N[C@H]1CCNC(=O)[C@H]([C@@H](C)O)NC(=O)[C@H](CCN)NC(=O)[C@H](CCN)NC(=O)[C@H](CC(C)C)NC(=O)[C@@H](Cc2ccccc2)NC(=O)[C@H](CCN)NC1=O)[C@@H](C)O [Compound 38] (Octanoyl-TN[Dab][Dab][dF]L[Dab][Dab]T; lactam 3-C) show? 284 µM

What value of CC50 at 24 h has been recorded for this entry: CC(C)C[C@@H]1NC(=O)[C@@H](Cc2ccccc2)NC(=O)[C@H](CCN)NC(=O)[C@@H](NC(=O)[C@@H](CCN)NC(=O)[C@@H](NC(=O)CCCCCc2ccccc2)[C@@H](C)O)CCNC(=O)[C@H]([C@@H](C)O)NC(=O)[C@H](CCN)NC(=O)[C@H](CCN)NC1=O [Compound 25] ({Hexanoyl(6-Ph)}-T[dDab][Dab][Dab][dF]L[Dab][Dab]T; lactam 3-C) > 300 µM

So what does the record say about CC50 at 24 h for CCCCCCCC(=O)N[C@H](C(=O)N[C@H](Cc1c[nH]cn1)C(=O)N[C@H]1CCNC(=O)[C@H]([C@@H](C)O)NC(=O)[C@H](CCN)NC(=O)[C@H](CCN)NC(=O)[C@H](CC(C)C)NC(=O)[C@@H](Cc2ccccc2)NC(=O)[C@H](CCN)NC1=O)[C@@H](C)O [Compound 48] (Octanoyl-T[dH][Dab][Dab][dF]L[Dab][Dab]T; lactam 3-C) ? > 300 µM

Data provenance: paper PMC6384738
